Test system: Plasma
Test description: Anticoagulant activity in citrated human plasma assessed as prolongation of activated partial thromboplastin time at 1 uM incubated for 3 mins by aPTT reagent based automated coagulometric analysis relative to control
Assay type: functional
Experimental conditions: 0.05 h

- Compound: "COc1cn(Cc2cccc(-c3ccncc3)c2)c(=O)cc1-c1cc(Cl)ccc1-n1cc(Cl)nn1"
  Activity: "78.1%"
- Compound: "COc1cn(Cc2ccc(F)c(-c3ccc(N)nc3)c2)c(=O)cc1-c1cc(Cl)ccc1-n1cnnn1"
  Activity: "128.5%"
- Compound: "COc1cn(Cc2ccnc(-c3ccc(N)nc3)c2)c(=O)cc1-c1cc(Cl)ccc1-n1cnnn1"
  Activity: "112.5%"
- Compound: "CCC(c1cc(-c2ccc(N)nc2F)ccn1)n1cc(OC)c(-c2cc(Cl)ccc2-n2cnnn2)cc1=O (racemic)"
  Activity: "97.2%"
